Biological target: mu receptor (Rattus norvegicus, UniProt P33535)
Construct: The brain tissue, rat whole brain minus cerebellum for mu was homogenized; from tissue; host or cells: brain minus cerebellum of male Sprague Dawley rats, homogenate fraction
Sequence (P33535 whole entry): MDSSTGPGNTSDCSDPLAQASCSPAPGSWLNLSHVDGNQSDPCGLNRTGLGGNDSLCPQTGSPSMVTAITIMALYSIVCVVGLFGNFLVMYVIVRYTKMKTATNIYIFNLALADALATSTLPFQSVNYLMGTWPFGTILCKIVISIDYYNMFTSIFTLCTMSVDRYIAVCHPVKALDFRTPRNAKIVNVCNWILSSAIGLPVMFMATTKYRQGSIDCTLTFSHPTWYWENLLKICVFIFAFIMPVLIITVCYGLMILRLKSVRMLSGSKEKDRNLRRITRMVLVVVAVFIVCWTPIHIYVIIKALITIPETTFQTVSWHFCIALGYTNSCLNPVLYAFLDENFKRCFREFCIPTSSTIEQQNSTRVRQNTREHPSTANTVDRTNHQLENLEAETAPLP
Assay: Naloxone [3H] opioid receptor binding assay (mu receptor)
Set-up: species or system rat (male Sprague Dawley)
Settings: 20 min, pH 7.4; 100 nM test compound; [3H]naloxone 0.5 nM; mu receptor; read-out: % displacement at 100 nM
# inhibition at 0.1 µM per record follows
Report only the number, with the unit % understood.

- compound: "C[C@H]1CN(CCN(C(=O)CCC(=O)OCC2CCCCC2)C2CCCCC2)CC[C@@]1(C)c1cccc(O)c1 (relative stereo) [Example 73]"
  unit.text: "%"
  inhibition at 0.1 µM: 88
- compound: "CC(C)CCN(CCN1CC[C@@](C)(c2cccc(O)c2)[C@@H](C)C1)C(=O)CCC(=O)O (relative stereo) [Example 28, monohydrate]"
  unit.text: "%"
  inhibition at 0.1 µM: 100
- compound: "C[C@H]1CN(C[C@@H](Cc2ccccc2)NC(=O)CC(=O)O)CC[C@@]1(C)c1cccc(O)c1 [Example 11]"
  unit.text: "%"
  inhibition at 0.1 µM: 80
- compound: "COC1CCC(OC(=O)CCCC(=O)N[C@@H](CC2CCCCC2)CN2CC[C@@](C)(c3cccc(O)c3)[C@@H](C)C2)CC1 (stereo partly drawn) [Example 68]"
  unit.text: "%"
  inhibition at 0.1 µM: 95
- compound: "CC(C)CN(CCCN1CC[C@@](C)(c2cccc(O)c2)[C@@H](C)C1)C(=O)CCCC(=O)O (relative stereo) [Example 29, monohydrate]"
  unit.text: "%"
  inhibition at 0.1 µM: 88

Fill in inhibition at 0.1 µM for record CC(C)COC(=O)CCCC(=O)N[C@@H](CC1CCCCC1)CN1CC[C@](C)(c2cccc(O)c2)[C@H](C)C1 [Example 55] 86

====

# ED50 per record follows
Target: opioid receptor (Mus musculus)
Construct: Five CF-1 male mice (Charles River, Portage, MI); from tissue; host or cells: living CF-1 male mice (whole animal, endogenous receptor)
Sequence (P42866 whole entry): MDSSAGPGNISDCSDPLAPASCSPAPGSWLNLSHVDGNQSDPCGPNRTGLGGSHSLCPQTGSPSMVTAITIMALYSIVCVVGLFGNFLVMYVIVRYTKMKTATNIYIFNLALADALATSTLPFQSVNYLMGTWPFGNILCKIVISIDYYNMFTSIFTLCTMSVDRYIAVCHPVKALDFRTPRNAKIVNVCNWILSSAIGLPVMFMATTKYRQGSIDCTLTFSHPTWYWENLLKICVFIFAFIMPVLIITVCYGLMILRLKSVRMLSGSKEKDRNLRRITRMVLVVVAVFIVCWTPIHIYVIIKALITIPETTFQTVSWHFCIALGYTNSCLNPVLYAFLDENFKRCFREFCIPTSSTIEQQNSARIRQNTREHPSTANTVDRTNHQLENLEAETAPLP
Experiment: in vivo
Set-up: species or system CF-1 male mice
Conditions: sc; mouse writhing test; […]; s.c. 20 min before acetic acid; read-out: AD50 (the source's name)
Counter-ions that a name gives are not always drawn.
Report only the number, with the unit mg/kg understood.

Reference set, count: 8
- molecule: "C[C@H]1CN(CC(Cc2ccccc2)NC(=O)CCCNC(=O)OC(C)(C)C)CC[C@@]1(C)c1cccc(O)c1 (stereo partly drawn) [Example 18, monohydrochloride]"
  unit.text: "mg/kg"
  ED50: 1.31
- molecule: "CCOC(=O)CCCC(=O)NC(CCN1CC[C@@](C)(c2cccc(O)c2)[C@@H](C)C1)CC(C)C (single isomer, unassigned) [Example 3A, monohydrochloride]"
  unit.text: "mg/kg"
  ED50: 14.2
- molecule: "CNC(=O)COC(=O)CCCC(=O)N[C@@H](CC1CCCCC1)CN1CC[C@@](C)(c2cccc(O)c2)[C@@H](C)C1"
  unit.text: "mg/kg"
  ED50: 12
- molecule: "C[C@H]1CN(CCCN(C(=O)CCCC(N)=O)C2CCCCC2)CC[C@@]1(C)c1cccc(O)c1 (relative stereo) [Example 37, monohydrochloride monohydrate]"
  unit.text: "mg/kg"
  ED50: 12.8
- molecule: "C[C@H]1CN(CCCN(CC2CCCCC2)C(=O)CCCC(=O)O)CC[C@@]1(C)c1cccc(O)c1 (relative stereo) [Example 27, monohydrate]"
  unit.text: "mg/kg"
  ED50: 11
- molecule: "C[C@H]1CN(CCN(C(=O)CCC(=O)O)C2CCCC2)CC[C@@]1(C)c1cccc(O)c1 (relative stereo) [Example 24, hemihydrate]"
  unit.text: "mg/kg"
  ED50: 19.2
- molecule: "CCOC(=O)CC(=O)N[C@H](Cc1ccccc1)CN1CC[C@@](C)(c2cccc(O)c2)[C@@H](C)C1 [Example 10, hydrochloride]"
  unit.text: "mg/kg"
  ED50: 9.3
- molecule: "C[C@H]1CN(CCN(C(=O)CCC(=O)OCC2CCCCC2)C2CCCCC2)CC[C@@]1(C)c1cccc(O)c1 (relative stereo)"
  unit.text: "mg/kg"
  ED50: 9.2

Next item in the queue.
Fill in ED50 for record CNC(=O)CC(=O)N(CCN1CC[C@@](C)(c2cccc(O)c2)[C@@H](C)C1)C1CCCCC1 (relative stereo) [Example 36, monohydrate] 2.9
